# measurementDescription: qHTS assay to test for compound auto fluorescence at 535 nm (green) in HepG2 cells (AID 720675)
# testParameters: green autofluorescence 485/535 nm, 1 h; series mostly up to 91.3 µM
Active and inactive are the calls of the source. Calls come from the whole dose curve; as a rule, active = well fitted curve in the direction sought with a large enough effect in the repeat runs; inconclusive = weak or mixed curves; inactive = flat fitted curve, though single readings scatter.
measuredQuantity: outcome

Sample records with outcome:
compound=NS(=O)(=O)c1cc(C(=O)O)c(NCc2ccco2)cc1Cl measuredquantity=outcome experimentalresult=inactive
compound=NNC(=O)c1ccncc1 measuredquantity=outcome experimentalresult=inactive
compound=O=C(O)CCCCC(=O)O measuredquantity=outcome experimentalresult=inactive
compound=NC(N)=O measuredquantity=outcome experimentalresult=inactive
compound=O=S(=O)(O)c1ccc2cc(O)ccc2c1 measuredquantity=outcome experimentalresult=inactive

Task: Tell me its outcome given CC(O)CO (centres undefined) as the entry.
Result: inactive

Task: Tell me its outcome given CC(C)(Oc1ccc(C2CC2(Cl)Cl)cc1)C(=O)O (centres undefined) as the entry.
Result: inactive

Task: Tell me its outcome given "CC(=O)OCC(COC(C)=O)OC(C)=O" as the entry.
Result: inactive

Task: Tell me its outcome given "O=C(O)c1[nH]n(-c2ccc(S(=O)(=O)O)cc2)c(=O)c1N=Nc1ccc(S(=O)(=O)O)cc1" as the entry.
Result: inactive

Task: Tell me its outcome given "CCCC(CCC)C(=O)O" as the entry.
Result: inactive

Task: Tell me its outcome given "CCC1(c2ccccc2)C(=O)NCNC1=O" as the entry.
Result: inactive

Taken from PubChem BioAssay (Tox21).
